// reported Fab-κ Yield for each item listed
target: human Fab-κ (human); test: dynamic binding on peptide-Toyopearl column, Fab 1 mg/mL in PBS, residence time 2 min, elution pH 4; yield = elution peak area over total peak area
Ends that are not written are not given here.
Give the value, in units of %, as a plain number.

binder: RWTIWPPNWHPP (also: C-terminus attached to Toyopearl AF-Amino-650M resin or ChemMatrix bead)
measurement.unit: %
Fab-κ Yield: 40
//
binder: IRHHNIWFNTIA (also: C-terminus attached to Toyopearl AF-Amino-650M resin or ChemMatrix bead)
measurement.unit: %
Fab-κ Yield: 42
//
binder: IIHRRAFWWFPN (also: C-terminus attached to Toyopearl AF-Amino-650M resin or ChemMatrix bead)
measurement.unit: %
Fab-κ Yield: 55

Using the record for FRWNFHRNTFFP (also: C-terminus attached to Toyopearl AF-Amino-650M resin or ChemMatrix bead) , report its Fab-κ Yield. 89
